Where do these numbers come from? They come from ChEMBL document CHEMBL1134692.

test system: Trypanosoma cruzi; experiment: Evaluated for its inhibitory activity against Trypanosoma cruzi; format: functional; conditions: read-out: ED50 (the source's name)
Attribute: EC50

Solved cases (4 shown):
>  <MOLECULE>
CCCC(C)OC(=O)CNC(=O)C(CSc1ccc([N+](=O)[O-])cc1[N+](=O)[O-])NC(=O)CCC(NC(=O)OCc1ccccc1)C(=O)OC(C)CCC (stereo not given)

>  <DATA VALUE>
> 30 µM

$$$$
>  <MOLECULE>
CC(C)CC(C)OC(=O)CNC(=O)C(CSc1ccc([N+](=O)[O-])cc1[N+](=O)[O-])NC(=O)CCC(NC(=O)OCc1ccccc1)C(=O)OC(C)CC(C)C (stereo not given)

>  <DATA VALUE>
> 30 µM

$$$$
>  <MOLECULE>
O=C(CCC(NC(=O)OCc1ccccc1)C(=O)OCCCCl)NC(CSc1ccc([N+](=O)[O-])cc1[N+](=O)[O-])C(=O)NCC(=O)OCCCCl (stereo not given)

>  <DATA VALUE>
> 30 µM

$$$$
>  <MOLECULE>
CCCCOC(=O)C(CCC(=O)NC(CSc1ccc([N+](=O)[O-])cc1[N+](=O)[O-])C(=O)NCC(=O)O)NC(=O)OCc1ccccc1 (stereo not given)

>  <DATA VALUE>
> 30 µM

$$$$

In the following, a different molecule is considered.
Ask: I'm curious: which EC50 was measured for CC(C)C(C)OC(=O)CNC(=O)C(CSc1ccc([N+](=O)[O-])cc1[N+](=O)[O-])NC(=O)CCC(NC(=O)OCc1ccccc1)C(=O)OC(C)C(C)C (stereo not given) tested on Trypanosoma cruzi?
Reply: < 30 µM

----------
system: Trypanosoma cruzi; experiment: Evaluated for its inhibitory activity against Trypanosoma cruzi; assay type: functional; settings: read-out: ED50 (the source's name)
QUANTITY MEASURED: EC50

Solved cases (5 shown):
>  <MOLECULE>
O=C(CCC(NC(=O)OCc1ccccc1)C(=O)OC1CCCC1)NC(CSc1ccc([N+](=O)[O-])cc1[N+](=O)[O-])C(=O)NCC(=O)OC1CCCC1 (stereo unspecified)

>  <EC50>
> 30 µM

$$$$
>  <MOLECULE>
CCCCCCOC(=O)CNC(=O)C(CSc1ccc([N+](=O)[O-])cc1[N+](=O)[O-])NC(=O)CCC(NC(=O)OCc1ccccc1)C(=O)OCCCCCC (stereo unspecified)

>  <EC50>
> 30 µM

$$$$
>  <MOLECULE>
O=C(CCC(NC(=O)OCc1ccccc1)C(=O)OCCCCCl)NC(CSc1ccc([N+](=O)[O-])cc1[N+](=O)[O-])C(=O)NCC(=O)OCCCCCl (stereo unspecified)

>  <EC50>
28 µM

$$$$
>  <MOLECULE>
O=C(CCC(NC(=O)OCc1ccccc1)C(=O)OCCF)NC(CSc1ccc([N+](=O)[O-])cc1[N+](=O)[O-])C(=O)NCC(=O)OCCF (stereo unspecified)

>  <EC50>
> 30 µM

$$$$
>  <MOLECULE>
CCCCC(C)OC(=O)CNC(=O)C(CSc1ccc([N+](=O)[O-])cc1[N+](=O)[O-])NC(=O)CCC(NC(=O)OCc1ccccc1)C(=O)OC(C)CCCC (stereo unspecified)

>  <EC50>
> 30 µM

$$$$

In the following, a different molecule is considered.
Ask: If you can, please state the reported EC50 value of CCCCCOC(=O)CNC(=O)C(CSc1ccc([N+](=O)[O-])cc1[N+](=O)[O-])NC(=O)CCC(NC(=O)OCc1ccccc1)C(=O)OCCCCC (stereo unspecified) .
Reply: 6.7 µM

----------
assay: Partition coefficient (logP); type: physicochemical; details: octanol/water
# note: exactly 4 is not below, so it is Not met; use Met for logP strictly under it

>  <COMPOUND>
CCOC(=O)CNC(=O)C(CSc1ccc([N+](=O)[O-])cc1[N+](=O)[O-])NC(=O)CCC(NC(=O)OCc1ccccc1)C(=O)O (stereo not drawn)

>  <ASSIGNED CATEGORY>
Met

$$$$

Ask: Is logP strictly under 4 for the entry CCCOC(=O)CNC(=O)C(CSc1ccc([N+](=O)[O-])cc1[N+](=O)[O-])NC(=O)CCC(NC(=O)OCc1ccccc1)C(=O)O (stereo not drawn) ?
Reply: Met

Ask: And what about the compound CCC(C)OC(=O)CNC(=O)C(CSc1ccc([N+](=O)[O-])cc1[N+](=O)[O-])NC(=O)CCC(NC(=O)OCc1ccccc1)C(=O)O (stereo not drawn) ?
Reply: Met

Ask: And what about the compound CC(C)OC(=O)CNC(=O)C(CSc1ccc([N+](=O)[O-])cc1[N+](=O)[O-])NC(=O)CCC(NC(=O)OCc1ccccc1)C(=O)O (stereo not drawn) ?
Reply: Met

Ask: And what about the compound CCCC(CC)OC(=O)CNC(=O)C(CSc1ccc([N+](=O)[O-])cc1[N+](=O)[O-])NC(=O)CCC(NC(=O)OCc1ccccc1)C(=O)OC(CC)CCC (stereo not drawn) ?
Reply: Not met

Ask: And what about the compound O=C(CCC(NC(=O)OCc1ccccc1)C(=O)OCCCl)NC(CSc1ccc([N+](=O)[O-])cc1[N+](=O)[O-])C(=O)NCC(=O)OCCCl (stereo not drawn) ?
Reply: Met

Ask: And what about the compound CCCCC(C)OC(=O)CNC(=O)C(CSc1ccc([N+](=O)[O-])cc1[N+](=O)[O-])NC(=O)CCC(NC(=O)OCc1ccccc1)C(=O)OC(C)CCCC (stereo not drawn) ?
Reply: Not met

Ask: And what about the compound CCC(CC)OC(=O)CNC(=O)C(CSc1ccc([N+](=O)[O-])cc1[N+](=O)[O-])NC(=O)CCC(NC(=O)OCc1ccccc1)C(=O)OC(CC)CC (stereo not drawn) ?
Reply: Not met

Ask: And what about the compound O=C(CCC(NC(=O)OCc1ccccc1)C(=O)OCCF)NC(CSc1ccc([N+](=O)[O-])cc1[N+](=O)[O-])C(=O)NCC(=O)OCCF (stereo not drawn) ?
Reply: Met

Ask: And what about the compound CCCC(C)OC(=O)CNC(=O)C(CSc1ccc([N+](=O)[O-])cc1[N+](=O)[O-])NC(=O)CCC(NC(=O)OCc1ccccc1)C(=O)OC(C)CCC (stereo not drawn) ?
Reply: Not met

Ask: And what about the compound CC(C)CC(C)OC(=O)CNC(=O)C(CSc1ccc([N+](=O)[O-])cc1[N+](=O)[O-])NC(=O)CCC(NC(=O)OCc1ccccc1)C(=O)OC(C)CC(C)C (stereo not drawn) ?
Reply: Not met

Ask: And what about the compound CC(C)CCC(C)OC(=O)CNC(=O)C(CSc1ccc([N+](=O)[O-])cc1[N+](=O)[O-])NC(=O)CCC(NC(=O)OCc1ccccc1)C(=O)OC(C)CCC(C)C (stereo not drawn) ?
Reply: Not met

----------
experiment: Partition coefficient (logP); type: physicochemical; conditions: octanol/water
QUANTITY MEASURED: logP

Ask: If you can, please state the reported logP value of CCCCOC(=O)C(CCC(=O)NC(CSc1ccc([N+](=O)[O-])cc1[N+](=O)[O-])C(=O)NCC(=O)O)NC(=O)OCc1ccccc1 (stereo unspecified) .
Reply: 2.8

Ask: And what about the compound O=C(CCC(NC(=O)OCc1ccccc1)C(=O)OCCCCCl)NC(CSc1ccc([N+](=O)[O-])cc1[N+](=O)[O-])C(=O)NCC(=O)OCCCCCl (stereo unspecified) ?
Reply: 5.56

Ask: And what about the compound CCCCCCCCOC(=O)CNC(=O)C(CSc1ccc([N+](=O)[O-])cc1[N+](=O)[O-])NC(=O)CCC(NC(=O)OCc1ccccc1)C(=O)OCCCCCCCC (stereo unspecified) ?
Reply: 8.99

Ask: And what about the compound O=C(CCC(NC(=O)OCc1ccccc1)C(=O)OC1CCCCC1)NC(CSc1ccc([N+](=O)[O-])cc1[N+](=O)[O-])C(=O)NCC(=O)OC1CCCCC1 (stereo unspecified) ?
Reply: 6.65

Ask: And what about the compound CC(C)C(C)OC(=O)CNC(=O)C(CSc1ccc([N+](=O)[O-])cc1[N+](=O)[O-])NC(=O)CCC(NC(=O)OCc1ccccc1)C(=O)OC(C)C(C)C (stereo unspecified) ?
Reply: 5.75

Ask: And what about the compound COC(=O)CNC(=O)C(CSc1ccc([N+](=O)[O-])cc1[N+](=O)[O-])NC(=O)CCC(NC(=O)OCc1ccccc1)C(=O)O (stereo unspecified) ?
Reply: 1.32

----------
Attribute: logP
test: Partition coefficient (logP); format: physicochemical; details: octanol/water
// print number alone

Solved cases (5 shown):
>  <COMPOUND>
O=C(CCC(NC(=O)OCc1ccccc1)C(=O)OCCCCl)NC(CSc1ccc([N+](=O)[O-])cc1[N+](=O)[O-])C(=O)NCC(=O)OCCCCl (stereo unspecified)

>  <logP>
4.58

$$$$
>  <COMPOUND>
O=C(CCC(NC(=O)OCc1ccccc1)C(=O)OC1CCCC1)NC(CSc1ccc([N+](=O)[O-])cc1[N+](=O)[O-])C(=O)NCC(=O)OC1CCCC1 (stereo unspecified)

>  <logP>
5.67

$$$$
>  <COMPOUND>
CCCCCOC(=O)CNC(=O)C(CSc1ccc([N+](=O)[O-])cc1[N+](=O)[O-])NC(=O)CCC(NC(=O)OCc1ccccc1)C(=O)OCCCCC (stereo unspecified)

>  <logP>
6.04

$$$$
>  <COMPOUND>
COCCOC(=O)CNC(=O)C(CSc1ccc([N+](=O)[O-])cc1[N+](=O)[O-])NC(=O)CCC(NC(=O)OCc1ccccc1)C(=O)OCCOC (stereo unspecified)

>  <logP>
1.56

$$$$
>  <COMPOUND>
CCCCCCOC(=O)CNC(=O)C(CSc1ccc([N+](=O)[O-])cc1[N+](=O)[O-])NC(=O)CCC(NC(=O)OCc1ccccc1)C(=O)OCCCCCC (stereo unspecified)

>  <logP>
7.02

$$$$

In the following, a different compound is considered.
Ask: If you can, please state the reported logP value of CCC(C)OC(=O)CNC(=O)C(CSc1ccc([N+](=O)[O-])cc1[N+](=O)[O-])NC(=O)CCC(NC(=O)OCc1ccccc1)C(=O)OC(C)CC (stereo unspecified) .
Reply: 4.91
